Test system: NCI-H460
Assay: relative viability (nuclei count vs DMSO), 5 days (fraction); higher = more cells survive
Conditions: first compound 2 µM
relative viability vs 0.9: less than gives T; not less than gives F.

Use these answered entries as a reference point.
{"Compound": "COCC1(CO)C(=O)C2CCN1CC2 (stereo not given) [PRIMA-1MET] + CC1(C)CCC(c2ccc(Cl)cc2)=C(CN2CCN(c3ccc(C(=O)NS(=O)(=O)c4ccc(N[C@H](CCN5CCOCC5)CSc5ccccc5)c(S(=O)(=O)C(F)(F)F)c4)cc3)CC2)C1 [Navitoclax] (partner 0.5 µM)", "Class": "F"}
{"Compound": "COCC1(CO)C(=O)C2CCN1CC2 (stereo not given) [PRIMA-1MET] + NC(=O)Nc1cc(-c2cccc(F)c2)sc1C(=O)N[C@H]1CCCNC1 [AZD7762] (partner 0.2 µM)", "Class": "T"}
{"Compound": "COCC1(CO)C(=O)C2CCN1CC2 (stereo not given) [PRIMA-1MET] + Cc1cc(Nc2cc(N3CCN(C)CC3)nc(Sc3ccc(NC(=O)C4CC4)cc3)n2)n[nH]1 [Tozasertib] (partner 0.1 µM)", "Class": "T"}
{"Compound": "COCC1(CO)C(=O)C2CCN1CC2 (stereo not given) [PRIMA-1MET] + CC(C)C[C@H](NC(=O)[C@H](Cc1ccccc1)NC(=O)c1cnccn1)B(O)O [Bortezomib] (partner 0.002 µM)", "Class": "F"}
{"Compound": "COCC1(CO)C(=O)C2CCN1CC2 (stereo not given) [PRIMA-1MET] + CC(=O)Nc1cccc(-n2c(=O)n(C3CC3)c(=O)c3c(Nc4ccc(I)cc4F)n(C)c(=O)c(C)c32)c1 [Trametinib] (partner 0.02 µM)", "Class": "T"}
{"Compound": "COCC1(CO)C(=O)C2CCN1CC2 (stereo not given) [PRIMA-1MET] + Nc1nc2[nH]cc(CCc3ccc(C(=O)N[C@@H](CCC(=O)O)C(=O)O)cc3)c2c(=O)[nH]1 [Pemetrexed] (partner 0.2 µM)", "Class": "T"}
{"Compound": "COCC1(CO)C(=O)C2CCN1CC2 (stereo not given) [PRIMA-1MET] + CC(=O)c1c(C)c2cnc(Nc3ccc(N4CCNCC4)cn3)nc2n(C2CCCC2)c1=O [Palbociclib] (partner 0.5 µM)", "Class": "T"}

Now consider the entry below.
Problem: Please check: relative viability for COCC1(CO)C(=O)C2CCN1CC2 (stereo not given) [PRIMA-1MET] + CS(=O)(=O)N1CCN(Cc2cc3nc(-c4cccc5[nH]ncc45)nc(N4CCOCC4)c3s2)CC1 [Pictilisib] (partner 1 µM) , strictly under 0.9 or not?
Result: T
